Give measured kon for each item. Keep answers brief.
assay.target: T1, recombinant human IL-23 (human, UniProt Q9NPF7 20-189; P29460 23-328)
T1 construct: also called hIL-23
T1 sequence 1: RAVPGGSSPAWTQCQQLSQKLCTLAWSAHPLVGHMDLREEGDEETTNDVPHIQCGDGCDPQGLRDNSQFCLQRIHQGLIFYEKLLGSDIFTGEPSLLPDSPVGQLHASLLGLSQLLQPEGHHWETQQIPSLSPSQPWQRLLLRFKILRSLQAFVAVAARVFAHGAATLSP
T1 sequence 2: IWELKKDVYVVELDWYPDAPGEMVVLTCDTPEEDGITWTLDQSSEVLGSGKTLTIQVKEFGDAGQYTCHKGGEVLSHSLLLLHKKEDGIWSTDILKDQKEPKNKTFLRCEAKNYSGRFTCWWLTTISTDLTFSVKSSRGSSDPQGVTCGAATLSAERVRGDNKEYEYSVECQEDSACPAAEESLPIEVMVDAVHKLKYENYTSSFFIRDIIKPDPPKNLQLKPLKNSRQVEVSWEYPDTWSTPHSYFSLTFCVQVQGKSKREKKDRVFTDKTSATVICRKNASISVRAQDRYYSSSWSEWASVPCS
measurement.notes: SPR (Biacore T100), tissue culture supernatant antibody captured on anti-human IgG, IL-23 analyte
The number alone won't do; follow it with the unit.

get_value(item= A3M6 (antibody, human IgG1, kappa, V domains shown, Full length chains) VH: QVQLVQSGAEVKKPGSSVKVSCKASGYTFTSYGITWVRQAPGQGLEWMGENYPRSGNTYYNEKFKGRVTITADKSTSTAYMELSSLRSEDTAVYYCARSEFISTVVAPYYYALDYWGQGTLVTVSS VL: DIVMTQSPDSLAVSLGERATINCKASKKVTIFGSISALHWYQQKPGQPPKLIYQGAKLESGVPDRFSGSGSGTDFTLTISSLQAEDVAVYYCLQNKEVPYTFGGGTKVEIKR , readout=kon) returns 896000 M⁻¹ s⁻¹

# kon (binder: A7M4 (antibody, human IgG1, kappa, V domains shown, Full length chains) VH: QVQLVQSGAEVKKPGSSVKVSCKASGYTFTSYGITWVRQAPGQGLEWMGEDYPRSGNTYYNEKFKGRVTITADKSTSTAYMELSSLRSEDTAVYYCARSEFISTVVAPYYYALDYWGQGTLVTVSS VL: DIVMTQSPDSLAVSLGERATINCKASKKVTIFGSTSALHWYQQKPGQPPKLIYNGAKPESGVPDRFSGSGSGTDFTLTISSLQAEDVAVYYCLQNKEVPYTFGGGTKVEIKR ) is 1.34e+06 M⁻¹ s⁻¹

Lookup result for A5M4 (antibody, human IgG1, kappa, V domains shown, Full length chains) VH: QVQLVQSGAEVKKPGSSVKVSCKASGYTFTSYGITWVRQAPGQGLEWMGENYPRSGNTYYNEKFKGRVTITADKSTSTAYMELSSLRSEDTAVYYCARAEFISTVVAPYYYALDYWGQGTLVTVSS VL: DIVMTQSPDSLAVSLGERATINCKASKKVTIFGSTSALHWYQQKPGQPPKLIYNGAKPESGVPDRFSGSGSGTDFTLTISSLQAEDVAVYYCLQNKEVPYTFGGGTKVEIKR ; measured kon: 1.91e+06 M⁻¹ s⁻¹

Field kon (entry A8M4 (antibody, V domains shown) VH: QVQLVQSGAEVKKPGSSVKVSCKASGYTFTSYGITWVRQAPGQGLEWMGEDYPRSGNTYYNEKFKGRVTITADKSTSTAYMELSSLRSEDTAVYYCARAEFISTVVAPYYYALDYWGQGTLVTVSS VL: DIVMTQSPDSLAVSLGERATINCKASKKVTIFGSTSALHWYQQKPGQPPKLIYNGAKPESGVPDRFSGSGSGTDFTLTISSLQAEDVAVYYCLQNKEVPYTFGGGTKVEIK ) reads 2.08e+06 M⁻¹ s⁻¹

According to the records, this binder A11.5M3 (antibody, V domains shown) VH: QVQLVQSGAEVKKPGSSVKVSCKASGYTFASYGITWVRQAPGQGLEWMGENYPRSGNTYYNEKFKGRVTITADKSTSTAYMELSSLRSEDTAVYYCARAEFISTVVAPYYYALDYWGQGTLVTVSS VL: DIVMTQSPDSLAVSLGERATINCKASKKVTIFGSTSALHWYQQKPGQPPKLIYNGAKLESGVPDRFSGSGSGTDFTLTISSLQAEDVAVYYCLQNKEVPYTFGGGTKVEIK displays kon of 1.55e+06 M⁻¹ s⁻¹
